Target: NS3/NS4 complexes (Hepatitis C virus genotype 1a)
Sequence (P27958 1027-1657): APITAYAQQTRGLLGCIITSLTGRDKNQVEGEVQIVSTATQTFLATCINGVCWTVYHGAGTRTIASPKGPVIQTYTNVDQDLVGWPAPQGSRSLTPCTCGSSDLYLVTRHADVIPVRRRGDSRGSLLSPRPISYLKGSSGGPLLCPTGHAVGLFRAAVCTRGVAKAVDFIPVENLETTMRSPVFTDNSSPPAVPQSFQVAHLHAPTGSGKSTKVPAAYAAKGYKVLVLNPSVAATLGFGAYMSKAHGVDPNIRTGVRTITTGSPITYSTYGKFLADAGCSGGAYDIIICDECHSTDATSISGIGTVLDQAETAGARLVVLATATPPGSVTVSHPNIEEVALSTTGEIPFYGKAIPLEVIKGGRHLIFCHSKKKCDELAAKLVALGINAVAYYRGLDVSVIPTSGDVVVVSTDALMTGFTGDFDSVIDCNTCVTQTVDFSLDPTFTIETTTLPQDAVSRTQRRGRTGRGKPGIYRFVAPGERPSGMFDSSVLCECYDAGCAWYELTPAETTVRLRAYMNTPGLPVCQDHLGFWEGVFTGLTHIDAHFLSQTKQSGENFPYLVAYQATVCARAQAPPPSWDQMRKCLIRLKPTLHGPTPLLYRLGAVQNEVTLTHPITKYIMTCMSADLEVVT
Sequence (P27958 1658-1711): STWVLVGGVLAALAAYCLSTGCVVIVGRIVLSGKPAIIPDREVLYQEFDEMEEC
Assay: NS3/NS4 inhibition activity (IC50)
Format: biochemical
Details: Table 3, read-out: IC50
Source text: NS3-NS4 inhibition activity can be determined using known assay methods. For example, NS3/NS4 complexes may be formed and inhibitory concentrations of test compounds determined as described in U.S. Patent Application Publication Number 2007/0054842 paragraph numbers 1497-1509, which is incorporated herein by reference in its entirety. […]
pIC50: −log10 of the molar value.
measured-quantity: pIC50

compound="CC(C)(C)OC(=O)N[C@H]1CCCCC/C=C\\[C@@H]2C[C@@]2(C(=O)NS(=O)(=O)C2CC2)NC(=O)[C@@H]2C[C@@H](Oc3nc4ccc(F)cc4s3)CN2C1=O [Compound 1010]" measured_quantity=pIC50 value_measured="> 8.00"
compound="CN(C)C(=O)O[C@@H]1C[C@H]2C(=O)N[C@]3(C(=O)NS(=O)(=O)CC(=O)Nc4ccccc4)C[C@H]3/C=C\\CCCCC[C@H](NC(=O)OC(C)(C)C)C(=O)N2C1 [Compound 1095]" measured_quantity=pIC50 value_measured="< 7.00"
compound="Cc1ccc2nc(O[C@@H]3C[C@H]4C(=O)N[C@]5(C(=O)NOc6ccccc6)C[C@H]5/C=C\\CCCCC[C@H](NC(=O)OC(C)(C)C)C(=O)N4C3)sc2c1 [Compound 1024]" measured_quantity=pIC50 value_measured="< 7.00"
compound="Cc1ccc2oc(O[C@@H]3C[C@H]4C(=O)N[C@]5(C(=O)NS(=O)(=O)C6CC6)C[C@H]5/C=C\\CCCCC[C@H](NC(=O)OC(C)(C)C)C(=O)N4C3)nc2c1 [Compound 1030]" measured_quantity=pIC50 value_measured="> 8.00"
compound="CC(C)(C)OC(=O)N[C@H]1CCCCC/C=C\\[C@@H]2C[C@@]2(C(=O)NS(=O)(=O)C2CC2)NC(=O)[C@@H]2C[C@@H](Oc3nc4ccc(Br)cc4s3)CN2C1=O [Compound 1012]" measured_quantity=pIC50 value_measured="> 8.00"

====

Measured EC50 values are reported for all entries that follow.
system: hepatitis C replicon; test: hepatitis C replicon EC50; type: cell-based; settings: Hepatitis C virus; Table 2; hepatitis C replicon; read-out: EC50
measured-quantity: EC50

molecule="O=C1N[C@]2(C(=O)NS(=O)(=O)C3CC3)C[C@H]2/C=C\\CCCCC[C@H](NCc2ccccc2)C(=O)N2C[C@H](Oc3nc4ccccc4s3)C[C@@H]12 [Compound 197]" target_desc="hepatitis C replicon" value_measured="10 to 75 nM"
molecule="Cc1ccc2c(c1)nc(O[C@@H]1C[C@H]3C(=O)N[C@]4(C(=O)NS(=O)(=O)C5(C)CC5)C[C@H]4/C=C\\CCCCC[C@H](Nc4ccccc4)C(=O)N3C1)n2C(C)C [Compound 470]" target_desc="hepatitis C replicon" value_measured="10 to 75 nM"
molecule="Cc1ccc2nc(O[C@@H]3C[C@H]4C(=O)N[C@]5(C(=O)NS(=O)(=O)C6(C)CC6)C[C@H]5/C=C\\CCCCC[C@H](Nc5ccccc5)C(=O)N4C3)sc2c1 [Compound 218]" target_desc="hepatitis C replicon" value_measured="75 to 500 nM"
molecule="COc1ccc2c(O[C@@H]3C[C@H]4C(=O)N[C@]5(C(=O)NS(=O)(=O)C6(C)CC6)C[C@H]5/C=C\\CCCCC[C@H](Nc5cccc(C(=O)N(C)C)c5)C(=O)N4C3)cc(-c3nc(C(C)C)cs3)nc2c1C [Compound 479]" target_desc="hepatitis C replicon" value_measured="< 10 nM"
molecule="COc1ccc2c(O[C@@H]3C[C@H]4C(=O)N[C@]5(C(=O)NS(=O)(=O)C6CC6)C[C@H]5/C=C\\CCCCC[C@H](Nc5ccccc5)C(=O)N4C3)cc(-c3ccccc3)nc2c1 [Compound 164]" target_desc="hepatitis C replicon" value_measured="< 10 nM"
